Test: Chemical stability of solid state forms in closed vials at controlled temperature and relative humidity
Assay type: physicochemical
Conditions: general statement on the solid state form
reportedEndpoint: chemical stability

CC[C@@H]1CN(C(=O)NCC(F)(F)F)C[C@@H]1c1cnc2cnc3[nH]ccc3n12 [L-Maleate Form AAA]; less chemically stable
CC[C@@H]1CN(C(=O)NCC(F)(F)F)C[C@@H]1c1cnc2cnc3[nH]ccc3n12 [L-Maleate Form BBB]; less chemically stable

###

Assay: Study 2-Part 2: methotrexate PK alone or with Compound 1 in subjects with RA
Type: in vivo
Settings: human, urine and plasma, 24 mg, Compound 1 24 mg BID Group, Day 29 (with Compound 1)
reportedEndpoint: CL renal

Query :: // lookup CL renal for CN(Cc1cnc2nc(N)nc(N)c2n1)c1ccc(C(=O)N[C@@H](CCC(=O)O)C(=O)O)cc1 [methotrexate]
Result :: 107 mL/min
